# TEST_METHOD_NOTES: Toxicity liver stage against HepG2, at 10uM
# Type: cell-based
# Design: test concentration 10 uM, cell line HepG2-A16-CD81EGFP
# TEST_PARAMETERS: human, HepG2-A16-CD81EGFP cells; read-out: INHIBITION
Kindly state cytotoxicity at 10 µM for each of the entries shown.
Give bare numbers, in %.

Sample records with cytotoxicity at 10 µM:
- MOLECULE: "Cc1nccc([C@H]2C[C@@H]3CCN(S(C)(=O)=O)C[C@H]3O2)n1"
  OBS_VALUE: -0.522
- MOLECULE: "CC(C)[C@@H]1CN(C(=O)CCn2ccccc2=O)C[C@H]1NS(C)(=O)=O"
  OBS_VALUE: 6.2
- MOLECULE: "CC(C)c1cc(NCC2(N3CCOCC3)CCCCC2)ncn1"
  OBS_VALUE: -12.8
- MOLECULE: "CCc1ncc(C(=O)N2CCCN(C3CCCC3)CC2)cn1"
  OBS_VALUE: -7.38
- MOLECULE: "O=C(CN1CCN(c2ncnc3c2CCNCC3)CC1)N1CCCCC1"
  OBS_VALUE: 6.63

For each of the molecules below, state cytotoxicity at 10 µM.
1. COCCN1CCC2(CCC1=O)CN(C1CCOCC1)CCN2C (configuration not stated)
2. CCN1CCCC1CNC(=O)c1cc(COc2cccc(F)c2)[nH]n1 (configuration not stated)
3. CCCc1nc(C(=O)NCc2cccnc2-n2cncn2)cs1
4. COC(=O)Nc1nc2c(s1)CN(C(=O)NCc1cccs1)CC2
5. CCCc1nc(C(=O)N2CCN(S(=O)(=O)CC)CC2)cs1
6. Cc1nnc(C[C@@H]2COC[C@H]3CN(C(=O)C4=CCCC4)C[C@@H]23)o1
7. CCn1nnc2c1C(COC)CN(Cc1ccco1)C2 (configuration not stated)
8. COc1ccc(CNC[C@H]2Cn3ccnc3CO2)cn1

**A:**
1. 0.0227
2. -5.96
3. -148
4. 3.89
5. -14.5
6. -5.86
7. 0.73
8. 8.73
